molecular target: T1, M2; test: scFv-phage ELISA
T1 construct: also called PD1 mutant M2
Measured parameter: OD490
Format: numeric value only, no unit, no commentary.

Q: Bench note: what OD490 did PD1-45F1 (antibody, V domains shown, scFv-phage in the screening ELISA; later whole IgG) VH: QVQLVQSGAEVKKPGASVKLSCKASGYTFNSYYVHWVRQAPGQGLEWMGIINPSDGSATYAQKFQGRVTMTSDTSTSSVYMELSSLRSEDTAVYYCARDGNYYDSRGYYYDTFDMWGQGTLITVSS VL: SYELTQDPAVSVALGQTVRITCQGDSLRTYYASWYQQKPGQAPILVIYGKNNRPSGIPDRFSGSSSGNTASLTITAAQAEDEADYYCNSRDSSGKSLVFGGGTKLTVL show?
A: 3.8
